Could you please report measured pKi for the items listed next?
Target: human emopamil binding protein and human 7-dehydrocholesterol reductase co-expressing cells (hEBP-DHCR7 membrane) (Homo sapiens (Human), UniProt Q15125)
Sequence (Q15125 whole entry): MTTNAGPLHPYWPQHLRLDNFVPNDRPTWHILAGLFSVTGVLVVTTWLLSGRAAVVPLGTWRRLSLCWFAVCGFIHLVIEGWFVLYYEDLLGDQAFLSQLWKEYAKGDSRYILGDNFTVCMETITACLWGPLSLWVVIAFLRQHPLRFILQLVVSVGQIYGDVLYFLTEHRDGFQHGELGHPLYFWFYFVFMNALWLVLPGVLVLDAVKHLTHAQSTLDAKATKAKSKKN
// pKi here means minus log10 of the molar concentration (mol/L)

Task: Look up and report measured pKi for this entry: Cc1nc(C(F)(F)F)ccc1[C@H]1CC[C@H](N2CCC3(C2)CS(=O)(=O)C3)CC1 [Compound 51A]
Output: 7.59

Task: Look up and report measured pKi for this entry: O=S1(=O)CC2(CCN([C@H]3CC[C@@H](c4ccc(C(F)(F)F)nc4)CC3)C2)C1 [Compound 14B]
Output: 7.55

Task: Look up and report measured pKi for this entry: O=S1(=O)CC2(CCN([C@@H]3CC[C@@H](c4ccc(C(F)(F)F)nc4)C3)C2)C1 (single isomer, unassigned) [Compound 11B]
Output: 7.44

Task: Look up and report measured pKi for this entry: O=S1(=O)CC2(CCN([C@H]3CC[C@@H](c4ncc(C(F)(F)F)cc4Cl)CC3)C2)C1 [Compound 48B]
Output: 8.02

Task: Look up and report measured pKi for this entry: O=S1(=O)CC2(CCN(C3CCN(c4ccc(C(F)(F)F)cc4)CC3)C2)C1
Output: 7.29

Task: Look up and report measured pKi for this entry: O=S1(=O)CC[C@]2(CCCN([C@H]3CC[C@@H](c4cc(C(F)(F)F)nn4C4CC4)CC3)C2)C1 (single isomer, unassigned) [69C*]
Output: 7.57

Task: Look up and report measured pKi for this entry: CC(C)n1nc(-c2ccc(C(F)(F)F)cc2)nc1[C@H]1CCC(N2CCC3(CC2)CS(=O)(=O)C3)C1 (stereo in doubt) [Compound 58B]
Output: 7.68

Task: Look up and report measured pKi for this entry: CC(C)n1nc(-c2cncc(C(F)(F)F)c2)cc1[C@H]1CC[C@@H](N2CCC3(C2)CS(=O)(=O)C3)C1 (single isomer, unassigned) [13A*]
Output: 8.16

Task: Look up and report measured pKi for this entry: CC(C)n1nc(-c2cncc(C(F)(F)F)c2)cc1[C@H]1CC[C@H](N2CCC3(C2)CS(=O)(=O)C3)C1 (single isomer, unassigned) [13D*]
Output: 7.72

Task: Look up and report measured pKi for this entry: CC(C)n1nc(C(F)(F)F)cc1[C@@H]1CC[C@@H](N2CCC3(C2)CS(=O)(=O)C3)C1 (single isomer, unassigned) [10D*]
Output: 7.48

Task: Look up and report measured pKi for this entry: O=S1(=O)CC2(CCN([C@H]3CC[C@H](c4ccc(C(F)(F)F)nc4)CC3)C2)C1 [Compound 14A]
Output: 7.23

Task: Look up and report measured pKi for this entry: CC(C)n1nc(C(F)(F)F)cc1[C@H]1CC[C@H](N2CCC3(C2)CS(=O)(=O)C3)CC1
Output: 7.47

Task: Look up and report measured pKi for this entry: CC(C)n1nc(-c2ccc(C(F)(F)F)cc2)nc1[C@H]1CCC(N2CCC3(CC2)CS(=O)(=O)C3)C1 (stereo in doubt) [Compound 58A]
Output: 7.66

Task: Look up and report measured pKi for this entry: CC(C)C1C[C@H](N2CCC3(C2)CS(=O)(=O)C3)CCN1c1ccc(C(F)(F)F)nc1 (stereo in doubt) [82A*]
Output: 7.05

Task: Look up and report measured pKi for this entry: CC(C)(C)n1nc(C2CC2)nc1[C@@H]1CC[C@H](N2CCC3(C2)CS(=O)(=O)C3)C1 [Compound 74A]
Output: 6.81

Task: Look up and report measured pKi for this entry: Cc1cc(C(F)(F)F)ncc1N1CCC(N2CCC3(C2)CS(=O)(=O)C3)CC1
Output: 7.52

Task: Look up and report measured pKi for this entry: O=S1(=O)CCC2(CCN([C@H]3CC[C@H](c4ccc(C(F)(F)F)nc4)CC3)C2)CC1 [Compound 95A]
Output: 6.15

Task: Look up and report measured pKi for this entry: Cc1cc(C(F)(F)F)cnc1N1CCC(N2CCC3(C2)CS(=O)(=O)C3)CC1
Output: 7.76

Task: Look up and report measured pKi for this entry: CCc1nc(C(F)(F)F)ccc1[C@H]1CC[C@H](N2CCC3(C2)CS(=O)(=O)C3)CC1 [Compound 64A]
Output: 7.82

----------
Target: human EBP (Homo sapiens (Human), UniProt Q15125)
Assay: Competition binding assay (SPA, [3H]-Ifenprodil) to determine compound affinity to EBP
Conditions: [3H]-Ifenprodil 10 nM, HEK293 membrane overexpressing human EBP, Ki=IC50/(1+[L]/Kd); read-out: hEBP SPA Ki
observed-property: Ki
Note: a bare number is incomplete; add the unit.

Task: Look up and report measured Ki for this entry: CC(C)n1nc(C2CC2)nc1[C@H]1CC[C@@H](N2CCC3(C2)CS(=O)(=O)C3)C1 (single isomer, unassigned) [18D*]
Output: 270 nM

Task: Look up and report measured Ki for this entry: O=S1(=O)CC2(CCN([C@@H]3CCCN(c4ccc(C(F)(F)F)cc4)C3)C2)C1 (single isomer, unassigned) [22A*]
Output: 34 nM

Task: Look up and report measured Ki for this entry: O=S1(=O)CC2(CCN([C@@H]3CC[C@H](c4ccc(C(F)(F)F)nc4)C3)C2)C1 (single isomer, unassigned) [11C*]
Output: 35 nM

Task: Look up and report measured Ki for this entry: O=S1(=O)CC2(CCN(C3CCN(c4ccc(C(F)(F)F)cc4)CC3)C2)C1 [Compound 4]
Output: 26 nM

Task: Look up and report measured Ki for this entry: O=S1(=O)CC2(CCN([C@H]3CO[C@@H](c4ccc(C(F)(F)F)cc4)C3)C2)C1 (stereo in doubt) [19A*]
Output: 27 nM

Task: Look up and report measured Ki for this entry: Cn1nc(C(F)(F)F)cc1[C@H]1CC[C@@H](N2CC[C@]3(CCS(=O)(=O)C3)C2)CC1 (single isomer, unassigned) [38A*]
Output: 27 nM

Task: Look up and report measured Ki for this entry: CC(C)n1nc(C(F)(F)F)cc1[C@H]1CC[C@@H](N2CCC3(C2)CS(=O)(=O)C3)CC1 [Compound 8B]
Output: 21 nM

----------
Target: human emopamil binding protein and human 7-dehydrocholesterol reductase co-expressing cells (hEBP-DHCR7 membrane) (Homo sapiens (Human))
Test: Radioligand filter binding assay on hEBP-DHCR7 membrane
Settings: [3H]-(S)-6-(2-Methyl-3-(6-(trifluoromethyl)pyridin-3-yl)propyl)-2-thia-6-azaspiro[3.4]octane 2,2-dioxide radioligand, HEK293 membrane co-expressing hEBP and hDHCR7
observed-property: pKi
// pKi here means minus log10 of the molar concentration (mol/L)

Task: Look up and report measured pKi for this entry: Cn1nc(C(F)(F)F)cc1[C@H]1CC[C@@H](N2CC[C@@]3(CCS(=O)(=O)C3)C2)CC1 (single isomer, unassigned) [38B*]
Output: 7.30

Task: Look up and report measured pKi for this entry: O=S1(=O)CC2(CCN([C@H]3CCN(c4ccc(C(F)(F)F)nc4)C3)C2)C1 (single isomer, unassigned)
Output: 7.23

Task: Look up and report measured pKi for this entry: O=S1(=O)CC2(CCN([C@@H]3CC[C@@H](c4nc(-c5cccc(C(F)(F)F)n5)nn4C4CC4)C3)CC2)C1 (single isomer, unassigned) [42B*]
Output: 6.41

Task: Look up and report measured pKi for this entry: CC(C)n1nc(C(F)(F)F)cc1[C@H]1CCC[C@@H](N2CCC3(CC2)CS(=O)(=O)C3)C1 (single isomer, unassigned) [78C*]
Output: 6.10

Task: Look up and report measured pKi for this entry: O=S1(=O)CC2(CCN([C@H]3CC[C@@H](c4cc(C(F)(F)F)nn4C4CC4)CC3)C2)C1 [Compound 12B]
Output: 7.49

Task: Look up and report measured pKi for this entry: Cc1cc(F)cnc1N1CCC(N2CCC3(C2)CS(=O)(=O)C3)CC1
Output: 7.08

Task: Look up and report measured pKi for this entry: O=S1(=O)CC2(CCN([C@H]3CC[C@H](c4ccc(C(F)(F)F)nc4C4CC4)CC3)C2)C1
Output: 7.96

----------
Target: human EBP (Homo sapiens (Human), UniProt Q15125)
Assay: Competition binding assay (SPA, [3H]-Ifenprodil) to determine compound affinity to EBP
Conditions: [3H]-Ifenprodil 10 nM, HEK293 membrane overexpressing human EBP, Ki=IC50/(1+[L]/Kd); read-out: hEBP SPA Ki
observed-property: Ki (nM)
State just the number; it will be interpreted in nM.

Task: GET Ki | system: human EBP (Homo sapiens (Human), UniProt Q15125) | item: O=S1(=O)CC2(CCN(C3CCN(c4ncc(C(F)(F)F)cc4Cl)CC3)C2)C1
Output: 39

Task: GET Ki | system: human EBP (Homo sapiens (Human), UniProt Q15125) | item: CCn1nc(-c2ccc(C(F)(F)F)nc2)nc1[C@H]1CC[C@H](N2CCC3(C2)CS(=O)(=O)C3)CC1 [36A*]
Output: 40

Task: GET Ki | system: human EBP (Homo sapiens (Human), UniProt Q15125) | item: CC(C)n1nc(-c2cncc(OC(F)F)c2)cc1[C@H]1CC[C@@H](N2CCC3(C2)CS(=O)(=O)C3)CC1 [Compound 33B]
Output: 33

Task: GET Ki | system: human EBP (Homo sapiens (Human), UniProt Q15125) | item: O=S1(=O)CC2(CCN([C@H]3CC[C@@H](c4cc(C(F)(F)F)nn4C4CC4)CC3)C2)C1 [Compound 12B]
Output: 29
